System: DU-145 prostate
PROTOCOL_TEXT: NCI tumour cell line growth inhibition, 48 h
ASSAY_READOUT: TGI

Example entries and their recorded answers appear below.
> print(dat)
                                   compound      target.desc  measured.value
1  O=C([O-])C1([n+]2c(-c3ccccc3)cc(-c3ccccc3)cc2-c2ccccc2)CC1  DU-145 prostate        > 100 µM
2  O=C(O)c1ccccc1CC(Cc1ccccc1)C(=O)O (stereo unspecified)  DU-145 prostate        > 100 µM
3      CC(=O)Oc1ccc2cc(Oc3ccccc3)c(=O)oc2c1  DU-145 prostate        > 100 µM
4  Clc1ccc(Cn2cc(/C=N/n3cnnc3)c3ccccc32)cc1  DU-145 prostate        > 100 µM

Considering Cn1c(CC(O)c2nc3ccccc3n2C)nc2ccccc21 (stereo unspecified) , its TGI with DU-145 prostate was recorded as > 21.7 µM

The recorded TGI with DU-145 prostate for OC1CSCCSCCCSCCSC1 was > 100 µM

Response field TGI (DU-145 prostate) for item CC1(CCCCO)C=CC(S(=O)(=O)c2ccccc2)CC1 (stereo unspecified) : 17.7 µM

Entry N#Cc1cccc(C2C3=C(COC3=O)N(CCO)c3cc4c(cc32)CCC4)c1 (stereo unspecified) ; assay system DU-145 prostate; TGI recorded at 7.29 µM

Item Cc1ccc(O)cc1Nc1ccnc2cc(-c3ccccn3)ccc12 ; assay system DU-145 prostate; TGI reported as 8.28 µM

Measured TGI for this entry O=C1c2ccccc2-c2c1c1ccc([N+](=O)[O-])cc1c(=O)n2CCCCl on DU-145 prostate: > 100 µM

The reported DU-145 prostate TGI of CCOP(=O)(/C=C\n1ccc(=O)[nH]c1=O)OCC is > 100 µM

---

Test system: MDA-MB-435
PROTOCOL_TEXT: NCI tumour cell line growth inhibition, 48 h
// values below are reported TGI
Provide the reading as a plain figure in µM.

Consider the worked cases shown below.
COMPOUND	UOM	TGI
CCOc1cc(/C=C/C(=O)CC(=O)/C=C/c2ccc(OC(=O)CNCCN(CC)CC)c(OCC)c2)ccc1OC(=O)CNCCN(CC)CC	µM	6.31
CCOC(=O)[C@@H]1C[C@@H]1c1ccc(O)c(O)c1	µM	34.5
COc1ncc2cc1NS(=O)(=O)c1cccc(c1)C(=O)NCC1=CC=C(S1)c1ncnc3c1SC2=C3C	µM	3.43

Per the record, CN(C)c1ccc2c(c1)OC(N)=C(C#N)C2c1ccc2c(c1)CCCN2C (stereo not drawn) has TGI of 1.28

For reference, reported TGI for Cc1n(Cc2ccc3ccccc3n2)cc[n+]1Cc1ccc2ccccc2c1 stands at 2.69

The reported TGI of the compound COC(=O)[C@]1(C)[C@H]2C[C@H]3O[C@H]4[C@H](O)[C@@H](O)OC(CC(O)C(C5=CC(=O)OC5)C(C5=CC(=O)OC5)C(O)CC56CCCCC7[C@@H](C)[C@H](C[C@H]8[C@](C)(C(=O)OC)[C@H](O)CC[C@]78C)O[C@H]([C@@H](O)[C@H](O)O5)[C@H]6O)(CCCCC([C@@H]3C)[C@]2(C)CC[C@@H]1O)[C@H]4O (stereo partly drawn) was 1.1

The compound listed as CCCCC1Cc2cc(OC)ccc2-c2n1c1cc(OC)ccc1[n+]2C (stereo not drawn) (tested in a mixture with another compound) has a reported TGI of 3.79

Lab note: measured TGI of COc1cc(S(=O)(=O)Nc2ccc(-c3csc(/N=C\c4cccs4)n3)cc2)ccc1Cl was 96.9

For this compound ( CCN(CC)Cc1cc(Nc2cc(C(F)(F)F)c(C#N)c3nc4ccccc4n23)ccc1O ), measured TGI is 13.5

// field: TGI; key: Nc1c(C(=O)c2ccccc2)nnc2ccccc12 ; value = 60.3

The reported TGI of the compound CCN(CC)C(=S)SSCCO was 31.7

Consider CC(=O)OC1CC[C@@]2(C)C(=CC[C@@H]3[C@@H]2CC[C@]2(C)C(OC(C)=O)[C@H](n4ccnc4)C[C@@H]32)C1 (stereo partly drawn) . Its measured TGI is 31.6

Lab note: measured TGI of O=C1CC(=O)NC(=NN2C(=O)/C(=C/c3ccc(Cl)cc3)N=C2c2ccccc2)N1 was 29.1

Record CC/C(=C(/c1ccc(/C=C/C(=O)O)cc1)c1ccc2[nH]ncc2c1)c1ccc(F)cc1Cl , field TGI: 8.38

Record summary for CC(C)c1cc(C(C)C)c(Cl)c(Cl)c1O (tested in a mixture with another compound) : reported TGI = 46.1

The reported numbers originate from PubChem BioAssay (NCI).
